Assay target: CDK6 CCND3 (human) (UniProt P30281+Q00534)
Sequence (P30281 whole entry, looked up): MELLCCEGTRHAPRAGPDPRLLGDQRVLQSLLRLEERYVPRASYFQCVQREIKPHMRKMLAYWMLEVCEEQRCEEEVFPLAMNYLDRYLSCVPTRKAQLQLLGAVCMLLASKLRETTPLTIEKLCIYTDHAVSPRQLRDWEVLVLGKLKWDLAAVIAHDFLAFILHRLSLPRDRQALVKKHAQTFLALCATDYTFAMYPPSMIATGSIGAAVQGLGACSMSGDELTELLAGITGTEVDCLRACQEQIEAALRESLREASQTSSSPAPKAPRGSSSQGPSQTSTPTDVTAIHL
Sequence (Q00534 whole entry, looked up): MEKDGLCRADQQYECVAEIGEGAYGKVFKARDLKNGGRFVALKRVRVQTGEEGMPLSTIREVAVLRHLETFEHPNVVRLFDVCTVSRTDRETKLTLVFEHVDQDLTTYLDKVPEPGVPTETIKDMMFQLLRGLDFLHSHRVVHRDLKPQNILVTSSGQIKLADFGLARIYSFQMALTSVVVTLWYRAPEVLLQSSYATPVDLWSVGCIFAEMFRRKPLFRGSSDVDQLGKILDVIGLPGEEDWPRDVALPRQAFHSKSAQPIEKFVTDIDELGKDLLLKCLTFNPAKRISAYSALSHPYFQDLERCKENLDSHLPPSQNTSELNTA
Experimental protocol: radiometric filter-binding kinase assay, Kinase HotSpot
Particulars: compound 0.5 µM; ATP 10 µM
Property measured: residual activity (%)
Report as a plain number; the unit % is understood.

See these solved cases before continuing.
>  <Test smiles>
COc1cc2ncnc(Nc3ccc(OCc4ccccc4)cc3)c2cc1OC

>  <Assay target>
CDK6 CCND3 (human) (UniProt P30281+Q00534)

>  <Property measured>
residual activity

>  <Recorded measurement>
97.8

$$$$
>  <Test smiles>
N#C/C(=C\c1ccc(O)c(O)c1)C(=O)NCc1ccccc1

>  <Assay target>
CDK6 CCND3 (human) (UniProt P30281+Q00534)

>  <Property measured>
residual activity

>  <Recorded measurement>
104

$$$$
>  <Test smiles>
COc1ccc(C(=O)Nc2sc3c(c2C(N)=O)CCCC3)cc1OC

>  <Assay target>
CDK6 CCND3 (human) (UniProt P30281+Q00534)

>  <Property measured>
residual activity

>  <Recorded measurement>
94.9

$$$$
>  <Test smiles>
CN(C)c1ccc(/C=C2\C(=O)Nc3ccccc32)cc1

>  <Assay target>
CDK6 CCND3 (human) (UniProt P30281+Q00534)

>  <Property measured>
residual activity

>  <Recorded measurement>
96.4

$$$$
>  <Test smiles>
COc1ccc2c(c1)/C(=C/c1cnc[nH]1)C(O)=N2

>  <Assay target>
CDK6 CCND3 (human) (UniProt P30281+Q00534)

>  <Property measured>
residual activity

>  <Recorded measurement>
28

$$$$

# next molecule below
Prompt line: Endpoint output: residual activity of `O=C1c2ccccc2-c2nc3nnnn3nc21` . Value?
Response line: 9.93

---

Assay target: DDR2 (human)
Experimental protocol: radiometric filter-binding kinase assay, Kinase HotSpot
Particulars: compound 0.5 µM; ATP 10 µM
Property measured: residual activity (%)
Please respond with the number in % and leave the unit unwritten.

>  <Test smiles>
O=C1Nc2ccc(Br)cc2/C1=C\c1cc2c([nH]1)CCCC2

>  <Assay target>
DDR2 (human)

>  <Unit of measurement>
%

>  <Recorded measurement>
101

$$$$
>  <Test smiles>
Cc1nc(-c2ccccc2)c(-c2ccncc2)o1

>  <Assay target>
DDR2 (human)

>  <Unit of measurement>
%

>  <Recorded measurement>
97.4

$$$$
>  <Test smiles>
Fc1ccc(-c2nc3n(c2-c2ccncc2)CCS3)cc1

>  <Assay target>
DDR2 (human)

>  <Unit of measurement>
%

>  <Recorded measurement>
94.9

$$$$
>  <Test smiles>
COc1ccc(Cl)cc1NC(=O)Nc1cc(C)nc2ccccc12

>  <Assay target>
DDR2 (human)

>  <Unit of measurement>
%

>  <Recorded measurement>
97.7

$$$$
>  <Test smiles>
O=C1c2ccccc2-c2nc3nnnn3nc21

>  <Assay target>
DDR2 (human)

>  <Unit of measurement>
%

>  <Recorded measurement>
58.7

$$$$

Consider the record given below.
Prompt line: Short answer please: residual activity, DDR2 (human), entry `O=C(c1cc2cc(O)ccc2[nH]1)c1cc2cc(O)ccc2[nH]1`
Response line: 95.7

---

Assay target: ADRBK1 (human) (UniProt P25098)
Sequence (P25098 whole entry, looked up): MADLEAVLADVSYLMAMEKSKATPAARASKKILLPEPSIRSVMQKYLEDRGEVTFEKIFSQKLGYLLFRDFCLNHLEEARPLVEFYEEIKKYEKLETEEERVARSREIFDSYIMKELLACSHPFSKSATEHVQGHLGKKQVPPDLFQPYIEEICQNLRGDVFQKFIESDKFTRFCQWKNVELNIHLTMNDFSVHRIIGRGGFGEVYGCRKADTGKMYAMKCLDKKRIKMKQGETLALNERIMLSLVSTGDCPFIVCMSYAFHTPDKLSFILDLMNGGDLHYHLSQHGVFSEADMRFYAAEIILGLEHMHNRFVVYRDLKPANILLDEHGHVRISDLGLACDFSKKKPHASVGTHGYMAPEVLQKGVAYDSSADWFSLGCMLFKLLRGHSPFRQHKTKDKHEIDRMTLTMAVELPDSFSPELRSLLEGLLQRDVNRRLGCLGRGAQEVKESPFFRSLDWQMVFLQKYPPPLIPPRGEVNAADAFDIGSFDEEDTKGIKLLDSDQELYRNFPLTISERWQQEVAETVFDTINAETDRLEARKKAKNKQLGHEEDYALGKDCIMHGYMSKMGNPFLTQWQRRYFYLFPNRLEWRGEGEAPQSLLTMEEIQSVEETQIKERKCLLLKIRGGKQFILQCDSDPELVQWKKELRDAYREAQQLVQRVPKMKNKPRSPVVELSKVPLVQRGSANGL
Experimental protocol: radiometric filter-binding kinase assay, Kinase HotSpot
Particulars: compound 0.5 µM; ATP 10 µM
Item-by-item account of residual activity
Numeric answer only, unit % assumed.

Prompt line: // query residual activity value for entry `CN(C)CCCn1cc(C2=C(c3c[nH]c4ccccc34)C(=O)NC2=O)c2ccccc21`
Response line: 96.5
